target_or_system: C-C chemokine receptor type 5 (Homo sapiens)
assay_method_text: Inhibition of [125I]-MIP-1 alpha binding to human CCR5 receptor expressed in Chinese hamster ovary (CHO) cells
pIC50: −log10 of the molar value.
assay_readout: pIC50

Record excerpt, results attached:
CCCN(C(=O)OCc1ccc(C(F)(F)F)cc1)C1CCN(CC[C@H](CN(C)S(=O)(=O)c2ccccc2)c2ccccc2)CC1: 8.22
CN(C[C@@H](CCN1CCC(N(CC2CCCCC2)C(=O)OCc2ccccc2)CC1)c1ccccc1)S(=O)(=O)c1ccccc1: 6.10
COC(=O)N(Cc1ccccc1)C1CCN(CC[C@H](CN(C)S(=O)(=O)c2ccccc2)c2ccccc2)CC1: 7.00

(1) CN(C(=O)OCc1ccccc1)C1CCN(CC[C@H](CN(C)S(=O)(=O)c2ccccc2)c2ccccc2)CC1
(2) CCOC(=O)N(CC)C1CCN(CC[C@H](CN(C)S(=O)(=O)c2ccccc2)c2ccccc2)CC1
(3) CCCN(C(=O)OCc1ccc([N+](=O)[O-])cc1)C1CCN(CC[C@H](CN(C)S(=O)(=O)c2ccccc2)c2ccccc2)CC1
(4) CCCCN(C(=O)OC)C1CCN(CC[C@H](CN(C)S(=O)(=O)c2ccccc2)c2ccccc2)CC1
Request: Ranking field: pIC50; order: falling. Reply with the item labels sorted in the order that was asked for.
Response: 3, 1, 4, 2
(3: 8.82, 1: 8.30, 4: 7.82, 2: 7.40)

* * *

target_or_system: C-C chemokine receptor type 5 (Homo sapiens, UniProt P51681)
Sequence (P51681 whole entry): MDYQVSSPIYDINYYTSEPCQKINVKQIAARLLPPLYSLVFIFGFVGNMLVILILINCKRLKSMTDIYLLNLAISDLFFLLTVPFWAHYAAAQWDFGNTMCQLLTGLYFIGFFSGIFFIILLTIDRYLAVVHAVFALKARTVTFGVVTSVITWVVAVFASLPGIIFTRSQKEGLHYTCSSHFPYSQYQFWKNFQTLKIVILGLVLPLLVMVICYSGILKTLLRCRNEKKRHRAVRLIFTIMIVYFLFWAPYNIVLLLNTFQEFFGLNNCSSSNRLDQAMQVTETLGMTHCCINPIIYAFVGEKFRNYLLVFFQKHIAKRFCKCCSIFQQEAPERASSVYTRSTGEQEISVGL
assay_method_text: Inhibition of [125I]-MIP-1 alpha binding to human CCR5 receptor expressed in Chinese hamster ovary (CHO) cells
assay_readout: IC50 (nM)

CCCN(C(=O)OCc1cccc(C)c1)C1CCN(CC[C@H](CN(C)S(=O)(=O)c2ccccc2)c2ccccc2)CC1: 3

(a) CCN(C(=O)OCC1CCCCC1)C1CCN(CC[C@H](CN(C)S(=O)(=O)c2ccccc2)c2ccccc2)CC1
(b) CCCN(C(=O)OCc1ccccc1C)C1CCN(CC[C@H](CN(C)S(=O)(=O)c2ccccc2)c2ccccc2)CC1
(c) CCCN(C(=O)OCc1ccccc1)C1CCN(CC[C@H](CN(C)S(=O)(=O)c2ccccc2)c2ccccc2)CC1
Request: // ascending sort on recorded IC50 Reply with the item labels sorted in the order that was asked for.
Response: c, b, a

* * *

target_or_system: C-C chemokine receptor type 5 (Homo sapiens)
assay_method_text: Inhibition of [125I]-MIP-1 alpha binding to human CCR5 receptor expressed in Chinese hamster ovary (CHO) cells
assay_readout: IC50 (nM)

(I) CCCN(C(=O)OCc1ccc(C(N)=O)cc1)C1CCN(CC[C@H](CN(C)S(=O)(=O)c2ccccc2)c2cccc(Cl)c2)CC1
(II) CCN(C(=O)OC(C)(C)C)C1CCN(CC[C@H](CN(C)S(=O)(=O)c2ccccc2)c2ccccc2)CC1 (stereo in doubt; 3d)
(III) C=CCN(C(=O)Cc1ccc([N+](=O)[O-])cc1)C1CCN(CC[C@@H](CN(C)S(=O)(=O)c2ccccc2)c2ccccc2)CC1
Request: Hey, quick one: sort these by IC50, largest value first please. Reply with the item labels sorted in the order that was asked for.
Response: II, I, III

* * *

target_or_system: C-C chemokine receptor type 5 (Homo sapiens, UniProt P51681)
assay_method_text: Inhibition of [125I]-MIP-1 alpha binding to human CCR5 receptor expressed in Chinese hamster ovary (CHO) cells
pIC50: −log10 of the molar value.
assay_readout: pIC50

Record excerpt, results attached:
C=CCN(C(=O)OCc1ccc([N+](=O)[O-])cc1)C1CCN(CC[C@H](CN(C)S(=O)(=O)c2ccccc2)c2cccc(Cl)c2)CC1: 8.70
CCN(C(=O)OCc1ccccc1)C1CCN(CC[C@H](CN(C)S(=O)(=O)c2ccccc2)c2cccc(Cl)c2)CC1: 8.70
C=CCN(C(=O)OCc1ccc([N+](=O)[O-])cc1)C1CCN(CC[C@H](CN(C)S(=O)(=O)c2ccccc2)c2ccccc2)CC1: 8.70
C=CCN(C(=O)OCc1ccccc1)C1CCN(CC[C@H](CN(C)S(=O)(=O)c2ccccc2)c2ccccc2)CC1: 8.70

(I) CCN(C(=O)OCc1ccccc1)C1CCN(CC[C@H](CN(C)S(=O)(=O)c2ccccc2)c2ccccc2)CC1
(II) CCCN(C(=O)OC)C1CCN(CC[C@H](CN(C)S(=O)(=O)c2ccccc2)c2ccccc2)CC1
Request: Kindly compare I with II and tell me which has the lower pIC50 figure. The response must carry the label of the picked entry.
Response: II
(II: 7.70, I: 8.70)
